Biological target: T1, Human GDF8 homodimer (mature human Growth and Differentiation Factor-8) (human, UniProt O14793 267-375)
T1 sequence: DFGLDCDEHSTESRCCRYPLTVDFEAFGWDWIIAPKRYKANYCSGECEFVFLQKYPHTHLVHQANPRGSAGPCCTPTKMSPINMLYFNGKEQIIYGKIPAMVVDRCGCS
Experiment: cell-based or functional assay
OBSERVED_PROPERTY: IC50, GDF8-inducible luciferase, A204/Smad2 cells, 0.8 nM GDF8 (nM)
One number for each entry, in nM.

{"columns": ["BINDER", "OBSERVED_RESULT"],
 "data": [
  ["8D12-1 (antibody, V domains shown, probably the same antibody as 8D12) VH: QVQLVESGGGVVQPGRSLRLSCAASGFTFSRYGIHWVRQAPGKGLEWVAVISYDGSDEYYVDSVKGRFSISRDNSKNTLYLQMNSLRPADSAVYYCVKGDLELGFDYWGQGTLVTVSS VL: DIVMTQAAPSIPVIPGESVSMSCRSSKSLLYSNGHTYVYWFVQRPGQSPQLLIYRMSNLASGVPDRFSGSGSGTAFTLRISRVEAEDVGVYYCMQNLEFPLTFGAGTKLELK", 2.4]
]}

For 22-G10 (antibody, V domains shown) VH: QVHLKESGPTLVKPTQTLTLTCTFSGFSLSTSGVGVGWIRQPPGKALEWLALIYWNDDKRYSPSLKSRLTITKDTSKNQVVLTMTNMDPVDTATYYCTHTSRYNWHYGFLDYWGQGTTVTVSS VL: AIQMTQSPSSLSASVGDRVTITCRASQGISNYLAWFQQKPGKAPKSLIYAASSLQSGVPSKFSGSGSGTDFTLTISSLQPEDFATYYCQQYNSYPLTFGGGTKVEIKR the binder record lists IC50, GDF8-inducible luciferase, A204/Smad2 cells, 0.8 nM GDF8 as 10.5
